Quick list: normalized growth per entry.
Experiment: chemical genetic growth profiling, strain panel (AID 1159580);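 also: tested at 20 µM; growth read once vehicle control cultures reached saturation at 30 °C; 1 = growth at the plate median or of vehicle wells; lower values mean less growth of the strain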
Settings: S. cerevisiae deletion strains, growth OD, locus YMR307W, strain GAS1, stronger effect = lower value
The campaign covered roughly 5,500 compounds. About 2,000 (36%) were called active. Another 18% or so got no clear call; they are omitted. This is one part of the list.
Write the number on its own, no unit after it.

Please review the entries below; each comes with its answer.
Give its normalized growth value. Item: Nc1ccc(N=Nc2ccccc2)c(N)n1
1.21

Give its normalized growth value. Item: CC1=CC2C(CC1=O)C(C)=CCC2C(C)C (centres undefined)
0.795

Give its normalized growth value. Item: Nc1ccn(C2O[C@H](CO)[C@@H](O)[C@@H]2O)c(=O)n1 (some centres undefined)
1.04

With those in mind, consider the next molecule.
Give its normalized growth value. Item: COc1cc([C@@H]2c3cc4c(c(O)c3C[C@H]3COC(=O)[C@@H]32)OCO4)cc(OC)c1OC
1.02

* * *

Quick list: normalized growth per entry.
Assay: chemical genetic growth profiling, strain panel (AID 1159580);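 also: tested at 20 µM; growth read once vehicle control cultures reached saturation at 30 °C; 1 = growth at the plate median or of vehicle wells; lower values mean less growth of the strain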
Details: S. cerevisiae deletion strains, growth OD, locus YOR316C, strain cot1, stronger effect = lower value
The whole screen tested about 5,500 compounds, of which about 2,000 (36%) were called active. About 18% were inconclusive and are not listed. This is one part of the list.
Write the number on its own, no unit after it.

Give its normalized growth value. Item: Cn1c(=O)c2[nH]cnc2n(C)c1=O
0.969

Give its normalized growth value. Item: CCCCN1CCCCC1C(=O)Nc1c(C)cccc1C (configuration not stated)
0.989

Give its normalized growth value. Item: CC[C@H](C)C(=O)O[C@H]1CCC=C2C=C[C@H](C)C(CCC3C[C@@H](O)CC(=O)O3)[C@H]21 (some centres not stated)
0.983

* * *

Quick list: normalized growth per entry.
Assay: chemical genetic growth profiling, strain panel (AID 1159580);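 also: tested at 20 µM; growth read once vehicle control cultures reached saturation at 30 °C; 1 = growth at the plate median or of vehicle wells; lower values mean less growth of the strain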
Conditions: S. cerevisiae deletion strains, growth OD, locus YOR080W, strain dia2, stronger effect = lower value
Hit rate of the full screen: of about 5,500 compounds, about 2,000 (36%) were called active. Inconclusive results (about 18%) are left out. The list shows a part of the results.
Write the number on its own, no unit after it.

Please review the entries below; each comes with its answer.
Give its normalized growth value. Item: COC(=O)C1=CCCN(C)C1
1

Give its normalized growth value. Item: N[C@@H](CC(=O)N1CCn2c(nnc2C(F)(F)F)C1)Cc1cc(F)c(F)cc1F
0.976

Give its normalized growth value. Item: COc1cc2c(cc1OC)C1Cc3ccc(OC)c(OC)c3CN1CC2 (centres undefined)
0.971

Give its normalized growth value. Item: CO/N=C(\C(=O)NC1C(=O)N2C(C(=O)O)=C(COC(N)=O)CSC12)c1ccco1 (centres undefined)
0.986

Give its normalized growth value. Item: CC(C)NNC(=O)c1ccncc1
1.01

---
Give its normalized growth value. Item: Cn1c(=O)c2[nH]cnc2n(C)c1=O
1

Give its normalized growth value. Item: CCCCNc1ccc(C(=O)OCCN(C)C)cc1
1

Give its normalized growth value. Item: CC(C)NCC(O)COc1cccc2ccccc12 (centres undefined)
1.02

Give its normalized growth value. Item: C=C1C(=O)OC2CC1C(OC(C)=O)C/C(C)=C/CC/C(C)=C/CC[C@]2(C)O (some centres undefined)
1.01

* * *

Assay: chemical genetic growth profiling, strain panel (AID 1159580);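 also: tested at 20 µM; growth read once vehicle control cultures reached saturation at 30 °C; 1 = growth at the plate median or of vehicle wells; lower values mean less growth of the strain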
Conditions: S. cerevisiae deletion strains, growth OD, locus YOR069W, strain VPS5, stronger effect = lower value
About 2,000 (36%) of roughly 5,500 compounds were called active. Inconclusive results (about 18%) are left out. This is one part of the list.
Quick list: normalized growth per entry.
Write the number on its own, no unit after it.

Please review the entries below; each comes with its answer.
Give its normalized growth value. Item: CCN(CC)C(=O)c1cccc(C)c1
1.01

Give its normalized growth value. Item: CC(C)(C)CC(C)(C)c1ccc(O)c(Cc2ccc(Cl)cc2Cl)c1
1.01

Give its normalized growth value. Item: Nc1ccn(C2O[C@H](CO)[C@@H](O)[C@@H]2O)c(=O)n1 (stereo not given in full)
1.01

Give its normalized growth value. Item: Oc1ccc(Cl)cc1
0.989

Give its normalized growth value. Item: CC(C)COCC(CN(Cc1ccccc1)c1ccccc1)N1CCCC1 (stereo not given)
0.983

Give its normalized growth value. Item: CCCNC1CCc2nc(N)sc2C1 (stereo not given)
1.01

---
Give its normalized growth value. Item: Cn1c(=O)c2[nH]cnc2n(C)c1=O
0.982

Give its normalized growth value. Item: CCC(C)c1cnc(CC(C)C)c(=O)n1O (stereo not given)
0.998

Give its normalized growth value. Item: CC(=O)Oc1c(C)cccc1C(=O)O
1.01

Give its normalized growth value. Item: Nc1ccc(N=Nc2ccccc2)c(N)n1
0.998
